- study_system: Poly(ADP-ribose) glycohydrolase (Homo sapiens)
- procedure_text: Inhibition of human full length PARG using Bt-NAD ribosylated PARP1 substrate after 10 mins by TR-FRET assay
pEC50: −log10 of the molar value.
property_label: pEC50

A: Cc1nc(C)c(Cn2c(=O)n(Cc3cnn(C)c3)c(=O)c3cc(S(=O)(=O)NC4(C)CC4)ccc32)s1
B: CCn1c(=O)c2cc(S(=O)(=O)NC3(C#N)CC3)ccc2n(CC)c1=O
C: Cc1ncc(Cn2c(=O)c3cc(S(=O)(=O)NC4(C)CC4)ccc3n(C)c2=O)s1
D: Cc1oncc1Cn1c(=O)c2cc(S(=O)(=O)NC3(C)CC3)ccc2n(C)c1=O
stdin: Using measured pEC50, arrange the compounds from above in descending sequence. Output the labels ranked as instructed.
stdout: A, C, D, B

P: Cn1c(=O)n(CC(=O)c2ccncc2)c(=O)c2cc(S(=O)(=O)NC3(C)CC3)ccc21
Q: CCNS(=O)(=O)c1ccc2c(c1)c(=O)n(CC)c(=O)n2CC
R: CCn1c(=O)n(Cc2nnc(C)s2)c(=O)c2cc(S(=O)(=O)NC3(C)CC3)ccc21
S: Cc1cc(Cn2c(=O)c3cc(S(=O)(=O)NC4(C)CC4)ccc3n(CC3CC3)c2=O)on1
T: C#CCn1c(=O)n(Cc2cc(C)no2)c(=O)c2cc(S(=O)(=O)NC3(C)CC3)ccc21
stdin: Sort the compounds on pEC50; start with the lowest figure. Output the labels ranked as instructed.
stdout: Q, P, R, T, S

* * *

- study_system: Poly(ADP-ribose) glycohydrolase (Homo sapiens, UniProt Q86W56)
- Sequence (Q86W56 whole entry): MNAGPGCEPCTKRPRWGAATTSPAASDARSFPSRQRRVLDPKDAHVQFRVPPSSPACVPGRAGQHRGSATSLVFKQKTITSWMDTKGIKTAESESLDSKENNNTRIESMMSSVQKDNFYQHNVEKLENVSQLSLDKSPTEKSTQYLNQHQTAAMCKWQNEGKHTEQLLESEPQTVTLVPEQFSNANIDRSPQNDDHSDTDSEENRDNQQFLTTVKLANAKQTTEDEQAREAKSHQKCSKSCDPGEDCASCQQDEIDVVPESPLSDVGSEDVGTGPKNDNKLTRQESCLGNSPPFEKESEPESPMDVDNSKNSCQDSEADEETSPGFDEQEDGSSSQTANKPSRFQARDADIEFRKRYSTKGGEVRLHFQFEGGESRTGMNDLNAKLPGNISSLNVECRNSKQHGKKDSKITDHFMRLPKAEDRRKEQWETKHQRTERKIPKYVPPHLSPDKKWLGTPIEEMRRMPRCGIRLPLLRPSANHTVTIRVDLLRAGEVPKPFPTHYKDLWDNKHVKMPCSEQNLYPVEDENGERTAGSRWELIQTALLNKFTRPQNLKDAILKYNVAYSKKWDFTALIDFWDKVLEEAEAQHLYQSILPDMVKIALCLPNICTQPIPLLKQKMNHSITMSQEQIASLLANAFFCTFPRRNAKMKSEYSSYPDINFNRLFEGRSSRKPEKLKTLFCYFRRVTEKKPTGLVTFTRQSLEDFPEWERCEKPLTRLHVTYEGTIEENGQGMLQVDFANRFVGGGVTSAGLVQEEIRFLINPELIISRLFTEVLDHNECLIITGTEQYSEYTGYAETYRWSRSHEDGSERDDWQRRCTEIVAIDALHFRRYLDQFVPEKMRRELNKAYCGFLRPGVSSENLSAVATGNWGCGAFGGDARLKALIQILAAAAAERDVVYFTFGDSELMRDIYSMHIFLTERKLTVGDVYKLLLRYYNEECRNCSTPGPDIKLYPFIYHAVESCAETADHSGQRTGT
- procedure_text: Inhibition of PARG in human HeLa cells assessed as induction of MMS-induced PAR chains preincubated for 1 hr followed by MMS addition and measured after 1 hr by Alexofluor 488-conjugated secondary antibody and Hoechst 33342 staining based assay
- Type: cell-based
pEC50: −log10 of the molar value.
property_label: pEC50

Worked examples, 2 compounds total:
C#CCn1c(=O)n(C)c(=O)c2cc(S(=O)(=O)NC3(C)CC3)ccc21 6.60
Cn1c(=O)c2cc(S(=O)(=O)NC3(C)CC3)ccc2n(Cc2ccccc2)c1=O 5.64

I: Cc1cc(Cn2c(=O)n(Cc3nnc(C)s3)c(=O)c3cc(S(=O)(=O)NC4(C)CC4)ccc32)n(C)n1
II: Cn1c(=O)c2cc(S(=O)(=O)NC3(C)CC3)ccc2n(CC2CC2)c1=O
stdin: Compare the recorded pEC50 of I and II ; state which is larger. // output: label of the selected item
stdout: I
(I: 6.57, II: 6.21)

I: Cc1ncc(Cn2c(=O)c3cc(S(=O)(=O)NC4(C)CC4)ccc3n(CC3CC3)c2=O)s1
II: Cc1cc(Cn2c(=O)c3cc(S(=O)(=O)NC4(C)CC4)ccc3n(CC3COC3)c2=O)on1
stdin: Hey, between I and II which has a smaller measured pEC50? // output: label of the selected item
stdout: II
(II: 6.55, I: 7.55)

a: Cc1ncc(Cn2c(=O)c3cc(S(=O)(=O)NC4(C)CC4)ccc3n(Cc3sc(C)nc3C)c2=O)s1
b: Cc1cc(Cn2c(=O)c3cc(S(=O)(=O)NC4(C)CC4)ccc3n(Cc3cc(C)nn3C)c2=O)on1
stdin: Hey, between a and b which has a smaller measured pEC50? // output: label of the selected item
stdout: b
(b: 6.92, a: 8.04)

Source listed as ChEMBL document CHEMBL4261639.
